# Target System: UniProt Q9HAZ1
# Sequence (Q9HAZ1 whole entry): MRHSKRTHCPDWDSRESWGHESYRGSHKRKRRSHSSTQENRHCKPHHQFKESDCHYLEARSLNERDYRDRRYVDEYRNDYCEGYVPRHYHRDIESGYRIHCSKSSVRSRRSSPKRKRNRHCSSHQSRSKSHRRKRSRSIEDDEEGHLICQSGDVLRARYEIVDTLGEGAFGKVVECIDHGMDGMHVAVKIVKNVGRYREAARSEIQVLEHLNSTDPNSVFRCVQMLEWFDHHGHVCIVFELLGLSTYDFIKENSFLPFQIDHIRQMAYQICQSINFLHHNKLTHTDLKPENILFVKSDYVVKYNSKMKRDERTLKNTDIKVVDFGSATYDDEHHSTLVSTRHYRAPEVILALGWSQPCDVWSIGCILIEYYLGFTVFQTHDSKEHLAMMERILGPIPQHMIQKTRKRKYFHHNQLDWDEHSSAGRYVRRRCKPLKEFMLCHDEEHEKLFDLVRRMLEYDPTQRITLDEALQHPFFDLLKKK
compounds and their reported pIC50
Please note pIC50 is a logarithmic value: minus log10 of concentration in mol/L. Answer with that number alone.

See these solved cases before continuing.
Compound | Recorded Result
CCc1noc2c1/C=C/c1n[nH]c3ccc(cc13)-c1cnn(C)c1O[C@@H](C)CN(C)C2 | 9.29
CCN1Cc2c(c(OC(C)C)nn2C[C@H](C)O)/C=C/c2n[nH]c3ccc(cc23)-c2cnn(C)c2O[C@@H](C)C1 | 8.71
CC(C)Oc1nn(CCO)c2c1/C=C/c1n[nH]c3ccc(cc13)-c1cnn(C)c1O[C@@H](C(F)F)CN(C)C2 (single isomer, unassigned) | 8.65
Cc1nn(C)c2c1/C=C/c1n[nH]c3ccc(cc13)-c1cnn(C)c1O[C@@H]1CCN(C2)C1 | 9.26
CC(=O)N1CCOc2c(cnn2C)-c2ccc3[nH]nc(c3c2)/C=C/c2c(nn(C)c2C)C1 | 9.25

Briefly, pIC50 measured for C[C@H]1CN(C)Cc2c(c(O)nn2CCO)/C=C/c2n[nH]c3ccc(cc23)-c2cnn(C)c2O1 : 9.00

# pIC50 (compound: Cc1nn(CCO)c2c1/C=C/c1n[nH]c3cc(F)c(cc13)-c1cnn(C)c1O[C@@H](C)CN(C)C2 ) is 9.40

pIC50 recorded for this compound, Cc1nn(CCO)c2c1/C=C/c1n[nH]c3cc(Cl)c(cc13)-c1cnn(C)c1O[C@@H](C)CN(C)C2 , is 8.37

// recorded pIC50 for Cc1nn(C)c2c1/C=C/c1n[nH]c3ccc(cc13)-c1cnn(C)c1COCCO2 : 9.28

pIC50 reading for CCN1Cc2c(c(OC(C)C)nn2[C@@H](C)CO)/C=C/c2n[nH]c3cc(F)c(cc23)-c2cnn(C)c2O[C@@H](C)C1 : 8.25

Entry CSCn1ncc2c1O[C@@H](C)CN(C(C)C)Cc1c(c(C)nn1C)/C=C/c1n[nH]c3ccc-2cc13 ; pIC50 = 9.23

// CCOc1nn(C)c2c1/C=C/c1n[nH]c3ccc(cc13)-c1cnn(C)c1O[C@@H](C)CN(C(C)C)C2 : pIC50 value = 9.40

GET /value?item= CCN1Cc2c(c(OC(C)C)nn2CC(N)=O)/C=C/c2n[nH]c3ccc(cc23)-c2cnn(C)c2O[C@@H](C)C1 &field=pIC50 returns 8.83

----------
# Target System: EGFR Δ746-750/C797S mutant (Homo sapiens (Human), UniProt P00533, C797S/DEL746-750)
# Sequence (P00533 other isoform, or with tags, fused parts or gaps C797S/del 1-668/del 746-750 limits assumed): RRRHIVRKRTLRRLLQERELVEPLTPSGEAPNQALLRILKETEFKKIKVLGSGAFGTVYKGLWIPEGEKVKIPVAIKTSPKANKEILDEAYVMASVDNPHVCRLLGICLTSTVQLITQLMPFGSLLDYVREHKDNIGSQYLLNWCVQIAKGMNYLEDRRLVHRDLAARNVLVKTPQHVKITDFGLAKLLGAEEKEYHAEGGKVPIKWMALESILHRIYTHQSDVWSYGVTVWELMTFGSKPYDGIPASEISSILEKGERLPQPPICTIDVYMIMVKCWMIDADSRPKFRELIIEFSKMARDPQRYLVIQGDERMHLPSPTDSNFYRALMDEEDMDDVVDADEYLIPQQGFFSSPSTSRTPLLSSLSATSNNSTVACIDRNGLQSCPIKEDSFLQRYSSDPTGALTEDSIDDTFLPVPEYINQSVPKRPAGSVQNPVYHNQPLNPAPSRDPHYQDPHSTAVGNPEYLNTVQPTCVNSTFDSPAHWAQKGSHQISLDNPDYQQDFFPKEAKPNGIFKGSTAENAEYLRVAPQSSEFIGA
# Protocol Summary: HotSpot radiometric kinase assay, EGFR Δ746-750/C797S mutant
# Type: biochemical
# Run Conditions: 10 μM ATP
IC50 strictly under 3 nM means Criterion met; at 3 nM or over means Criterion not met.

These recorded examples may help you get a feel for the data.
Compound | Target System | Class
CCOc1nn(CCO)c2c1/C=C/c1n[nH]c3ccc(cc13)-c1cnn(C)c1O[C@@H](CC)CN(C)C2 | EGFR Δ746-750/C797S mutant (Homo sapiens (Human), UniProt P00533, C797S/DEL746-750) | Criterion not met
CC(C)Oc1nn(CCO)c2c1/C=C/c1n[nH]c3ccc(cc13)-c1cnn(C)c1O[C@@H](C)[C@H]1CCCN1C2 | EGFR Δ746-750/C797S mutant (Homo sapiens (Human), UniProt P00533, C797S/DEL746-750) | Criterion met
C[C@H](C#N)Oc1nn(CCO)c2c1/C=C/c1n[nH]c3cc(F)c(cc13)-c1cnn(C)c1O[C@@H](C)CN(C)C2 | EGFR Δ746-750/C797S mutant (Homo sapiens (Human), UniProt P00533, C797S/DEL746-750) | Criterion met

Quick check: does Cc1nn(CCO)c2c1/C=C/c1n[nH]c3ccc(cc13)-c1cnn(C)c1O[C@@H](C)CN(C(C)C)C2 have IC50 under 3 nM? Criterion met

Could you please tell me whether IC50 recorded for CC(C)Oc1nn(CCO)c2c1/C=C/c1n[nH]c3ccc(cc13)-c1cnn(C)c1O[C@@H](C)CN(C)[C@@H]2C is less than 3 nM? Criterion not met

Confirm or reject: IC50 of CCOc1nn(CCO)c2c1/C=C/c1n[nH]c3ccc(cc13)-c1cnn(C)c1O[C@@H](C)CN(C)C2 lies strictly below 3 nM Criterion met

Lab log: compare recorded IC50 with 3 nM; is it strictly lower for CCOc1nn(CCO)c2c1/C=C/c1n[nH]c3ccc(cc13)-c1c(C)nn(C)c1O[C@H](C)CN(C1CC1)C2 ? Criterion met

Just wondering, is IC50 of CCOc1nn(CCO)c2c1/C=C/c1n[nH]c3ccc(cc13)-c1cnn(C)c1OC[C@H](C)N(C1CC1)C2 below 3 nM? Criterion met

# check: IC50 < 3 nM for Cc1nn(C)c2c1/C=C/c1n[nH]c3ccc(cc13)-c1cnn(C)c1O[C@@H]1CCCN(C2)C1 Criterion not met

Is the reported IC50 for Cc1c2c(nn1CCO)CNC[C@H](C)Oc1c(cnn1C)-c1ccc3[nH]nc(c3c1)/C=C/2 strictly below 3 nM? Criterion not met

// data source = patent US20250353864A1
